assay: binders of probe aFST on microarray, primary screen, stem cell growth factor project, biochemical, small-molecule microarray, fluorescence 635/667 (AID 1086); conditions: higher = more signal;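 further: score merges 667 nm fluorescence with signal-to-noise of each printed compound spot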
Classify as follows. Reported composite z-score greater than or equal to 0.4: MET. Reported composite z-score below: NOT MET.

Molecule: C[C@H]1COC(=O)[C@H](Cc2ccccc2)NC(=O)[C@@H](C)COC(=O)[C@H](Cc2ccccc2)NC1=O
Class Assignment: NOT MET
//
Molecule: CO[C@H]1COC(=O)CC=C[C@@H](C)COC(=O)[C@@H](C)NC(=O)CC=C[C@@H]1C
Class Assignment: NOT MET
//
Molecule: C#CCCCON=C1C[C@@H](O)[C@@H](O)[C@@H]2[C@@H]3C(=O)N(Cc4ccc5c(c4)OCO5)C(=O)[C@@H]3CC[C@@H]12
Class Assignment: NOT MET
//
Molecule: [N-]=[N+]=NCc1ccccc1C[C@]1(C(=O)N2CCCCC2)N=C(c2ccc(OCCCO)cc2)O[C@H]1c1ccccc1CN=[N+]=[N-]
Class Assignment: MET
//
Molecule: COc1ccc(C(O)C2C=CC3C(=O)N(C)C(=O)C3N2N2CCCCC2)cc1OCc1ccccc1 (configuration not stated)
Class Assignment: MET
//
Molecule: O=C1c2ccccc2[C@](Cc2ccccc2I)(C(=O)O)[C@H](c2ccc(CO)cc2)N1C1CCCCC1
Class Assignment: MET
//
Molecule: CO[C@H]1COC(=O)[C@@H](OCc2ccccc2)C=C[C@H](C)[C@@H](OC)COC(=O)[C@H](OCc2ccccc2)C=C[C@@H]1C
Class Assignment: NOT MET
